# method_description: In vitro non-enzymatic hydrolysis in Krebs-Henseleit buffer
# Assay type: physicochemical
# stated_conditions: Krebs-Henseleit buffer with 2% w/v BSA, pH 7.4; 2% BSA Krebs buffer; read-out: Half-life (converted)
measured_quantity: half-life

Asked: Field request: half-life | item: CCCCCCCC(=O)Oc1ccccc1C(=O)O
Given back: ~30 days

###

# key: entry, value: Efflux rate coefficient (k2)
# Test system: in-situ perfused rat liver
# method_description: In-situ rat liver perfusion bolus studies, moments and dispersion model analysis (Example 3)
# Format: in vitro ADME, Sprague-Dawley rats
# stated_conditions: two-compartment dispersion model fitting, n = 3, Mean S.E.; 2% BSA perfusate
Value expressed in s⁻¹; do not type the unit.

compound: O=C(O)c1cc(-c2ccc(F)cc2F)ccc1O [DF, reference compound]
Efflux rate coefficient (k2) (s⁻¹): 0.02
//
compound: CCCCCC(=O)Oc1ccc(-c2ccc(F)cc2F)cc1C(=O)O
Efflux rate coefficient (k2) (s⁻¹): 0.06
//
compound: CCCC(=O)Oc1ccc(-c2ccc(F)cc2F)cc1C(=O)O
Efflux rate coefficient (k2) (s⁻¹): 0.08
//
compound: CC(=O)Oc1ccc(-c2ccc(F)cc2F)cc1C(=O)O
Efflux rate coefficient (k2) (s⁻¹): 0.25

Then there is this compound:
Asked: Field request: Efflux rate coefficient (k2) | item: CCCCC(=O)Oc1ccc(-c2ccc(F)cc2F)cc1C(=O)O
Given back: 0.14

###

# key: entry, value: Platelet Aggregation (% of control)
# Test system: human platelet rich plasma
# method_description: Platelet aggregation induced by arachidonic acid
# Type: cell-based
# stated_conditions: preincubation 20 minutes; compound 600 µM, 37° C.; arachidonic acid 200 µM

Below, each entry is followed by its recorded Platelet Aggregation (% of control) result.
compound: CCCCCC(=O)Oc1ccccc1C(=O)O [Compound C6SA, n-hexanoylsalicylic acid]
measured_quantity: Platelet Aggregation (% of control)
data_value: 0 % of control
//
compound: CCCCCCCC(=O)Oc1ccccc1C(=O)O [Compound C8SA, n-octanoylsalicylic acid]
measured_quantity: Platelet Aggregation (% of control)
data_value: 0 % of control
//
compound: CCCCCC(=O)Oc1ccc(-c2ccc(F)cc2F)cc1C(=O)O [Compound C6D, n-hexanoyldiflunisal]
measured_quantity: Platelet Aggregation (% of control)
data_value: 45.6 ± 0.5 % of control
//
compound: CCCCC(=O)Oc1ccc(-c2ccc(F)cc2F)cc1C(=O)O [Compound C5D, n-pentanoyldiflunisal]
measured_quantity: Platelet Aggregation (% of control)
data_value: 0 % of control
//
compound: CCC(=O)Oc1ccccc1C(=O)O [Compound C3SA, n-propionylsalicylic acid]
measured_quantity: Platelet Aggregation (% of control)
data_value: 0 % of control

Asked: Field request: Platelet Aggregation (% of control) | item: CCCCC(=O)Oc1ccccc1C(=O)O [Compound C5SA, n-pentanoylsalicylic acid]
Given back: 0 % of control

Asked: Field request: Platelet Aggregation (% of control) | item: CC(=O)Oc1ccc(-c2ccc(F)cc2F)cc1C(=O)O [Compound C2D, acetyldiflunisal]
Given back: 0 % of control

Asked: Field request: Platelet Aggregation (% of control) | item: CCCC(=O)Oc1ccccc1C(=O)O [Compound C4SA, n-butanoylsalicylic acid]
Given back: 0 % of control

Asked: Field request: Platelet Aggregation (% of control) | item: CCCCCCC(=O)Oc1ccc(-c2ccc(F)cc2F)cc1C(=O)O [Compound C7D, n-heptanoyldiflunisal]
Given back: 77.3 ± 3.1 % of control

Asked: Field request: Platelet Aggregation (% of control) | item: CCC(=O)Oc1ccc(-c2ccc(F)cc2F)cc1C(=O)O [Compound C3D, n-propionyldiflunisal]
Given back: 0 % of control

Asked: Field request: Platelet Aggregation (% of control) | item: CCCC(=O)Oc1ccc(-c2ccc(F)cc2F)cc1C(=O)O [Compound C4D, n-butanoyldiflunisal]
Given back: 0 % of control

###

# key: entry, value: log 1/C
# System: ischaemic/reperfusion rat livers
# method_description: Ischaemic/reperfusion injury in rat livers (LDH release, bile production)
# Parameters: species or system Female Sprague-Dawley rats
# stated_conditions: C is the ED50 molar dose
Quick one: just the number, no unit, thanks!

compound: CC(=O)Oc1ccc(-c2ccc(F)cc2F)cc1C(=O)O [Compound C2D, acetyldiflunisal]
log 1/C: 4.61
--
compound: CCCCCCC(=O)Oc1ccc(-c2ccc(F)cc2F)cc1C(=O)O [Compound C7D, n-heptanoyldiflunisal]
log 1/C: 4.52
--
compound: CCCCC(=O)Oc1ccc(-c2ccc(F)cc2F)cc1C(=O)O [Compound C5D, n-pentanoyldiflunisal]
log 1/C: 4.77
--
compound: CCCC(=O)Oc1ccc(-c2ccc(F)cc2F)cc1C(=O)O [Compound C4D, n-butanoyldiflunisal]
log 1/C: 4.67

Then there is this compound:
Asked: Test system ischaemic/reperfusion rat livers; read-out log 1/C; what value for CCCCCC(=O)Oc1ccc(-c2ccc(F)cc2F)cc1C(=O)O [Compound C6D, n-hexanoyldiflunisal] ?
Given back: 4.68

###

# key: entry, value: CL inhibition (%)
# System: superoxide generated from xanthine oxidase plus xanthine reaction
# method_description: Xanthine oxidase plus xanthine-induced chemiluminescence
# Format: biochemical
# Set-up: dose or concentration left out as unconfirmed
# stated_conditions: X: CL induced by xanthine oxidase plus xanthine
Value expressed in %; do not type the unit.

Below, each entry is followed by its recorded CL inhibition (%) result.
compound: O=C(O)c1ccccc1O [SA, 2-hydroxybenzoic acid, reference compound]
CL inhibition (%): 0.2
--
compound: CCCCCCC(=O)Oc1ccc(-c2ccc(F)cc2F)cc1C(=O)O
CL inhibition (%): 0.9
--
compound: CCCCC(=O)Oc1ccccc1C(=O)O
CL inhibition (%): 0.3

Asked: Field request: CL inhibition (%) | item: CCCCC(=O)Oc1ccc(-c2ccc(F)cc2F)cc1C(=O)O
Given back: 0.8

###

# key: entry, value: F (hepatic availability)
# System: in-situ perfused rat liver
# method_description: In-situ rat liver perfusion bolus studies, moments and dispersion model analysis (Example 3)
# Format: in vitro ADME, Sprague-Dawley rats
# stated_conditions: moments analysis, bolus, n = 3, Mean S.E.; 2% BSA perfusate, 30 mL/min

Below, each entry is followed by its recorded F (hepatic availability) result.
sample_smiles: CCCC(=O)Oc1ccc(-c2ccc(F)cc2F)cc1C(=O)O
assay_target: in-situ perfused rat liver
F (hepatic availability): 0.34 ± 0.01
--
sample_smiles: CCCCC(=O)Oc1ccc(-c2ccc(F)cc2F)cc1C(=O)O
assay_target: in-situ perfused rat liver
F (hepatic availability): 0.38 ± 0.02
--
sample_smiles: CCCCCC(=O)Oc1ccc(-c2ccc(F)cc2F)cc1C(=O)O
assay_target: in-situ perfused rat liver
F (hepatic availability): 0.38 ± 0.04

Asked: Field request: F (hepatic availability) | item: CC(=O)Oc1ccc(-c2ccc(F)cc2F)cc1C(=O)O
Given back: 0.21 ± 0.03

###

# key: entry, value: CL inhibition (%)
# Tested on: superoxide generated from xanthine oxidase plus xanthine reaction
# method_description: Xanthine oxidase plus xanthine-induced chemiluminescence
# Type: biochemical
# Design: dose or concentration left out as unconfirmed
# stated_conditions: X: CL induced by xanthine oxidase plus xanthine
Value expressed in %; do not type the unit.

Below, each entry is followed by its recorded CL inhibition (%) result.
molecule: O=C(O)c1cc(-c2ccc(F)cc2F)ccc1O [DF, reference compound]
CL inhibition (%): 0.4

molecule: CCCC(=O)Oc1ccc(-c2ccc(F)cc2F)cc1C(=O)O
CL inhibition (%): 0.6

molecule: CCCC(=O)Oc1ccccc1C(=O)O
CL inhibition (%): 0.3

molecule: CCCCCC(=O)Oc1ccccc1C(=O)O
CL inhibition (%): 0.2

molecule: CC(=O)Oc1ccc(-c2ccc(F)cc2F)cc1C(=O)O
CL inhibition (%): 0.5

Asked: Test system superoxide generated from xanthine oxidase plus xanthine reaction; read-out CL inhibition (%); what value for CCCCCC(=O)Oc1ccc(-c2ccc(F)cc2F)cc1C(=O)O ?
Given back: 0.7

###

# Tested on: in-situ perfused rat liver
# method_description: In-situ rat liver perfusions, hepatic extraction (Example 4)
# Type: in vitro ADME
# stated_conditions: 2% BSA in Krebs-Henseleit buffer as perfusate; hepatic extraction=1- hepatic availability (F)
# key: entry, value: Hepatic extraction
Quick one: just the number, no unit, thanks!

molecule: CCCC(=O)Oc1ccc(-c2ccc(F)cc2F)cc1C(=O)O
Hepatic extraction: 0.66
//
molecule: CCCCCC(=O)Oc1ccc(-c2ccc(F)cc2F)cc1C(=O)O
Hepatic extraction: 0.62
//
molecule: CC(=O)Oc1ccc(-c2ccc(F)cc2F)cc1C(=O)O
Hepatic extraction: 0.49

Asked: Test system in-situ perfused rat liver; read-out Hepatic extraction; what value for CCCCC(=O)Oc1ccc(-c2ccc(F)cc2F)cc1C(=O)O ?
Given back: 0.62

Asked: Test system in-situ perfused rat liver; read-out Hepatic extraction; what value for O=C(O)c1cc(-c2ccc(F)cc2F)ccc1O [DF, reference compound] ?
Given back: 0.38

###

# method_description: In vitro non-enzymatic hydrolysis in Krebs-Henseleit buffer
# Type: physicochemical
# stated_conditions: bovine, Krebs-Henseleit buffer with 2% w/v BSA, pH 7.4; read-out: Half life (t1/2) (converted)
Respond with t for half-life values of 10 days and above, f for values below.

Worked set:
sample_smiles: CCCC(=O)Oc1ccccc1C(=O)O
classification: f

sample_smiles: CCCCCCCC(=O)Oc1ccccc1C(=O)O
classification: t

sample_smiles: CCCCCC(=O)Oc1ccccc1C(=O)O
classification: t

sample_smiles: CCCCC(=O)Oc1ccccc1C(=O)O
classification: t

Asked: Decide: half-life of CCCCCCC(=O)Oc1ccccc1C(=O)O >= 10 days?
Given back: t
